Origin of values: PubChem BioAssay AID1159580

ASSAY_EXPLANATION: chemical genetic growth profiling, strain panel (AID 1159580);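 also: tested at 20 µM; growth read once vehicle control cultures reached saturation at 30 °C; 1 = growth at the plate median or of vehicle wells; lower values mean less growth of the strain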
CONDITION_SUMMARY: S. cerevisiae deletion strains, growth OD, locus YGR092W, strain DBF2
Out of some 5,500 compounds screened, about 2,000 (36%) were called active. About 18% were inconclusive and are not listed. Rule as the data show it: active = normalized growth mostly below about 0.91 (no sharp cut-off); inconclusive = no clear call, values can overlap the other calls; inactive = mostly above about 0.92. Some of the results follow.
// allowed return values: Yes for active, No for inactive

Below are worked cases with known answers.
[
  {
    "MOL_SMILES": "Cc1cc2nc3c(Cl)c(O)c4ccccc4c3nc2cc1C",
    "CATEGORY_LABEL": "No"
  },
  {
    "MOL_SMILES": "O=[N+]([O-])c1cc(C(F)(F)F)ccc1Sc1n[nH]c(-c2cc(Cl)cc(Cl)c2)n1",
    "CATEGORY_LABEL": "Yes"
  },
  {
    "MOL_SMILES": "COC(=O)c1cc(I)c(OC(C)=O)c(I)c1",
    "CATEGORY_LABEL": "No"
  },
  {
    "MOL_SMILES": "CC(=O)c1ccc(Sc2ccccc2)c([N+](=O)[O-])c1",
    "CATEGORY_LABEL": "Yes"
  }
]

Exam item: I'd appreciate the recorded outcome for COc1ccc(Oc2ccc([N+](=O)[O-])cc2C(=O)O/N=C(/N)c2ccc(C(F)(F)F)cc2)cc1 from this test.
Marked response: No

Exam item: Entry Cc1cc(C)c2cc(C(=O)NCCNc3ccc(C(F)(F)F)cn3)[nH]c2c1 please
Marked response: Yes

Exam item: Entry Cc1cc(Sc2c([N+](=O)[O-])cc(C(F)(F)F)cc2[N+](=O)[O-])c(Cl)cc1Cl please
Marked response: No

Exam item: Entry O=C(NCc1ccc2c(c1)OCO2)c1cc2ccccc2s1 please
Marked response: Yes

Exam item: Entry Cc1csc2ncnc(N3CCN(C(=O)Nc4ccc(SC(F)(F)F)cc4)CC3)c12 please
Marked response: No

Exam item: Entry N/C(=N/OCc1c(F)cccc1Cl)c1ccc(Cl)cc1 please
Marked response: No

###

ASSAY_EXPLANATION: chemical genetic growth profiling, strain panel (AID 1159580);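 also: tested at 20 µM; growth read once vehicle control cultures reached saturation at 30 °C; 1 = growth at the plate median or of vehicle wells; lower values mean less growth of the strain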
CONDITION_SUMMARY: S. cerevisiae deletion strains, growth OD, locus YLR371W, strain rom2, stronger effect = lower value
The campaign covered roughly 5,500 compounds. About 2,000 (36%) were called active. About 18% were inconclusive and are not listed. The list shows a part of the results.
ASSAY_METRIC: normalized growth
Answers are plain numbers.

[
  {
    "COMPOUND": "CC[C@H]1OC(=O)[C@H](C)[C@@H](O[C@H]2C[C@@](C)(OC)[C@@H](O)[C@H](C)O2)[C@H](C)[C@@H](O[C@@H]2O[C@H](C)C[C@H](N(C)C)[C@H]2O)[C@](C)(O)C[C@@H](C)/C(=N/OCOCCOC)[C@H](C)[C@@H](O)[C@]1(C)O",
    "REPORTED_MEASUREMENT": 0.972
  },
  {
    "COMPOUND": "CN1C(=O)CC[C@H]1c1cccnc1",
    "REPORTED_MEASUREMENT": 0.983
  },
  {
    "COMPOUND": "O=C(N[C@@H](CO)[C@H](O)c1ccc([N+](=O)[O-])cc1)C(Cl)Cl",
    "REPORTED_MEASUREMENT": 1.02
  },
  {
    "COMPOUND": "O=C(O)c1cccnc1C(=O)O",
    "REPORTED_MEASUREMENT": 0.986
  },
  {
    "COMPOUND": "C[N+]12CCC(CC1)C(OC(=O)C(O)(c1ccccc1)c1ccccc1)C2 (centres undefined)",
    "REPORTED_MEASUREMENT": 0.977
  },
  {
    "COMPOUND": "CC(C)N=C(N)N=C(N)Nc1ccc(Cl)cc1",
    "REPORTED_MEASUREMENT": 1.03
  }
]

Dear reader, for each entry below, please note its normalized growth.
1. CCCN(CCC)c1c([N+](=O)[O-])cc(C(F)(F)F)cc1[N+](=O)[O-]
2. CN1CCN(C2=Nc3cc(Cl)ccc3Nc3ccccc32)CC1

Marked response:
1. 1.02
2. 1.03

Exam item: So what does the record say about normalized growth for CC(=O)OCC1=C(C(=O)O)N2C(=O)[C@@H](NC(=O)CSc3ccncc3)[C@H]2SC1 ?
Marked response: 0.994
